# Tested System: protein F of hRSV strain B-1 (on RSV B-1-infected Hep2 cells and on virus) (human respiratory syncytial virus, …, UniProt P13843 26-574)
# Assay Info: cell ELISA on RSV B-1-infected Hep2 cells, periplasmic extract 1:50
Property Name: Binding Hep2-B-1 (% control) 1:50 PE

Binder	Property Name	Reported Value
Nanobody 1B2 (VHH, c-myc/His6-tagged; also called PMP1B2; PRSV1B2) VHH: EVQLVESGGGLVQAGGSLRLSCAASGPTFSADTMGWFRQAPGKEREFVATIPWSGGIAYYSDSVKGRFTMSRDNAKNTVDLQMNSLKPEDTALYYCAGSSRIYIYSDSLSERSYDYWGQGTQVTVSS	Binding Hep2-B-1 (% control) 1:50 PE	88 % control
Nanobody 8A1 (VHH, also called PMP8A1; PRSV8A1) VHH: EVQLVESGGGLVQPGGSLRVSCAASGFTFNDYIMGWFRQAPGKERMFIAAISGTGTIKYYGDLVRGRFTISRDNAKNTVYLRIDSLNPEDTAVYYCAARQDYGLGYRESHEYDYWGQGTQVTVSS	Binding Hep2-B-1 (% control) 1:50 PE	98 % control
Nanobody 1E4 (VHH, also called PMP1E4; PRSV1E4) VHH: EVQLVESGGGLVQAGGSLRLSCEASGRTFSSYGMGWFRQAPGKEREFVAAVSRLSGPRTVYADSVKGRFTISRDNAENTVYLQMNSLKPEDTAVYTCAAELTNRNPGAYYYTWAYDYWGQGTQVTVSS	Binding Hep2-B-1 (% control) 1:50 PE	55 % control
Nanobody 1A6 (VHH, also called PMP1A6; PRSV1A6) VHH: EVQLVESGGGLVQAGGSLRLSCAASGRTFSSYAMGWFRQAPGKEREFVAAIWWSGGSTYYADSVKGRFTMSRDNAKNTVYLEMNNLKPEDTAVYYCAADTDSSNSGSYLYTWAYDYWGQGTQVTVSS	Binding Hep2-B-1 (% control) 1:50 PE	57 % control
Nanobody 1G8 (VHH, also called PMP1G8; PRSV1G8) VHH: EVQLVESGGGSVQAGGSLRLSCAASGGSFNRFGMGWFRRAPGKERDFVAAINLSGDTTYYVDSVQGRFTISRDNANNIMYLQMNLLKPEDTADYYCAADPDPITAWKQSGAGMDYWGKGTQVTVSS	Binding Hep2-B-1 (% control) 1:50 PE	73 % control
Nanobody 13B4 (VHH, also called PMP13B4; PRSV13B4) VHH: EVQLVESGGGLVQAGGSLRLSCAASGFTFDDYAIGWFRQAPGKEREAVSCISSSDGSTYYADSVKGRFTISSDNAKNMVYLQMNSLKPEDTAVYYCAADLLRTAVGCLDYRGTYYPRTTMDYRGKGTLVTVSS	Binding Hep2-B-1 (% control) 1:50 PE	75 % control
Nanobody 19C4 (VHH, also called PMP19C4; PRSV19C4) VHH: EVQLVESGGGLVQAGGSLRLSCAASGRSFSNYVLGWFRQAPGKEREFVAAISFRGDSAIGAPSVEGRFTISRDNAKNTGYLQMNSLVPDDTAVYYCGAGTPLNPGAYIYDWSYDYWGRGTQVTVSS	Binding Hep2-B-1 (% control) 1:50 PE	72 % control
Nanobody 1G3 (VHH, also called PMP1G3; PRSV1G3) VHH: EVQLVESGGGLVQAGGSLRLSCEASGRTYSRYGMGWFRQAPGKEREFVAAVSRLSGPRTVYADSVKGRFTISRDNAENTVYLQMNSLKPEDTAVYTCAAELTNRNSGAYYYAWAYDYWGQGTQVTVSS	Binding Hep2-B-1 (% control) 1:50 PE	52 % control
Nanobody 13A1 (VHH, also called PMP13A1; PRSV13A1) VHH: EVQLVESGGGLVQPGGSLRLSCAASGLTLDYYALGWFRQAPGKEREGVSCISSADHSTTYADSVKGRFTISWDNAKNTVYLQMNSLKPEDTAVYYCAADPALGCYSGNYYPRYDYWGQGTQVTVSS	Binding Hep2-B-1 (% control) 1:50 PE	84 % control
Nanobody 1A2 (VHH, also called PMP1A2; PRSV1A2) VHH: EVQLVESGGGLVQAGGSLRLSCAASERTFSYYAMGWFRQAPGKEREFVATISRSGEWIYYKDAMKGRFTISRDNANNAVYLQMNSLQPEDTAIYYCAADSLGGFRSASDYYNTNTYAYWGQGTQVTVSS	Binding Hep2-B-1 (% control) 1:50 PE	86 % control
Nanobody 7B2 (VHH, also called PMP7B2; PRSV7B2) VHH: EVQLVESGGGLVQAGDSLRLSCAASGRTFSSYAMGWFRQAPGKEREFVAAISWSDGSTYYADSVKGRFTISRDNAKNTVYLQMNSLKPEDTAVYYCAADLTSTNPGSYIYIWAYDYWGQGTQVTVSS	Binding Hep2-B-1 (% control) 1:50 PE	61 % control
Nanobody 13C1 (VHH, also called PMP13C1; PRSV13C1) VHH: EVQLVESGGGLVQPGGSLRLSCEASGFTWDYYVIGWFRQAPGKEREGLSCISSDGSTTYADSVKGRFTISRDNAKNTVYLQMNSLEPEDTAVYYCATDPALGCYSGSYYPRYDYWGQGTQVTVSS	Binding Hep2-B-1 (% control) 1:50 PE	104 % control
